# Test system: Aβ1-42 production in H4 cells stably transfected with APP751 containing the Swedish mutation
# assay.text: Cellular assay for inhibition of Aβ1-42 production (H4 APP751 SWE clone 8.20)
# Format: cell-based
# measurement.parameters: 19 h, H4 APP751 SWE clone 8.20 cells, 19 h incubation; read-out: Aβ42 cellular IC50
pIC50: −log10 of the molar value.
assay.readout: pIC50

> print(dat)
                                   molecule  numeric.readout
1  Cn1cc(-c2ccc3c(c2)[C@@]2(C)N=C(N)SC[C@H]2CCO3)cn1 (relative stereo)             5.29

[P] C[C@]12N=C(N)SC[C@H]1CCOc1ccc(NC(=O)c3ccc(F)cn3)cc12 [Example 36a]
[Q] C[C@@]12N=C(N)SC[C@@H]1CCCc1ccc(NC(=O)c3ccc(OC(F)F)cn3)cc12 [Example 46b]
**Query** Of P and Q , whose reported pIC50 is numerically smaller? Answer with the label corresponding to your selection.
**Result** Q
